target: AxCT mask27 EGFR EH104 L067 version 1
metric: Percent cleavage (%)
Respond with the bare value in %.

Exercise: Form field: reported Percent cleavage of Matriptase (protein) VVGGTDADEGEWPWQVSLHALGQGHICGASLISPNWLVSAAHCYIDDRGFRYSDPTQWTAFLGLHDQSQRSAPGVQERRLKRIISHPFFNDFTFDYDIALLELEKPAEYSSMVRPICLPDASHVFPAGKAIWVTGWGHTQYGGTGALILQKGEIRVINQTTCENLLPQQITPRMMCVGFLSGGVDSCQGDSGGPLSSVEADGRIFQAGVVSWGDGCAQRNKPGVYTRLPLFRDWIKENTGV
Solution: 0
